PARAMETER MEASURED: melting point

Observe how each entry below is paired with its result.
CC1(C)Oc2ccc(C#N)cc2C(c2ccc[nH]c2=O)C1O (stereo not given)
246 to 247 °C
C#CCNC(=O)c1ncn2c1[C@@H]1CCCN1Cc1c(Cl)cccc1-2
233 to 235 °C
CCOC(=O)CN(CC(=O)OCC)C(=O)c1cc(OCCCCCCCCCCCCOc2ccccc2)ccc1OCc1ccccc1
49 to 50 °C

melting point recorded for this molecule, CC(CO)C1CCC2C3C=CC4=CC(=O)C5OC5C4(C)C3CCC12C (stereo not given) , is 158 to 161 °C

melting point recorded for this molecule, COCN1c2cc(C(=O)OC)ccc2Sc2nccnc21 , is 151 to 152 °C

melting point recorded for this molecule, COc1ccc2c(c1)CCC1CCN=C21 (stereo not given) , is 102 to 104 °C

melting point recorded for this molecule, CC(=O)SC(CC(=O)c1ccccc1)C(=O)O (stereo not given) , is 90 °C

melting point recorded for this molecule, CC(C)(C)OC(=O)N1CCc2cc(NC(=O)NCc3ccc4c(c3)CN(C3CCC(=O)NC3=O)C4=O)ccc2C1 (stereo not given) , is 230 to 232 °C

melting point recorded for this molecule, O=c1oc2ccccc2c2c1CN(CCN1CC3CCCC(C3)C1)CC2 , is 129 to 130 °C

melting point recorded for this molecule, O=C1C=C(COCc2ccccc2)N=CC1OCc1ccccc1 (stereo not given) , is 103 to 131 °C
